Reference source: patent US11814364B2

TARGET DESC: Factor XIa (Homo sapiens, UniProt P03951)
Sequence (P03951 388-625 limits assumed): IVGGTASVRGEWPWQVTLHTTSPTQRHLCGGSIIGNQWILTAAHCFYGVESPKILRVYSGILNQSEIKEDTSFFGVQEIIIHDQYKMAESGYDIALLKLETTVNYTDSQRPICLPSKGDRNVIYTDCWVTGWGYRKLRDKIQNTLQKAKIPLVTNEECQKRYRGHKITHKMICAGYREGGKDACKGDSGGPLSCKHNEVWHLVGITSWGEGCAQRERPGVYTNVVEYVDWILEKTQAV
Sequence (P03951 19-387 partner limits assumed): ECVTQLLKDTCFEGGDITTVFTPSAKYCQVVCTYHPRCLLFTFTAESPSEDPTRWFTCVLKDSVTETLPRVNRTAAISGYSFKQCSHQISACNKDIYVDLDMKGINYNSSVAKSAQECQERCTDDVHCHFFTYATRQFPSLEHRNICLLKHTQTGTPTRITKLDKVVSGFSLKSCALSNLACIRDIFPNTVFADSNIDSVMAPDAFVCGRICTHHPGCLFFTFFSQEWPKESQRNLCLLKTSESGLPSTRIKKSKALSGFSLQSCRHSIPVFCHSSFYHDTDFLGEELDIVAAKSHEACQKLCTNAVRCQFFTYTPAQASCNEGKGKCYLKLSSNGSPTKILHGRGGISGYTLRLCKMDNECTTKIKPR
pIC50: −log10 of the molar value.
Label condition met for high-side pIC50 (at or above 8) and condition not met for low-side pIC50 (below it).

Below are worked cases with known answers.
COC(=O)Nc1ccc(-c2cnn(C(CC3CC3)c3c(F)cc(-c4c(-n5cnnn5)ccc(Cl)c4F)c[n+]3[O-])c2)cc1 (stereo not shown): condition met
O=C(O)c1ccc(-c2cnn(C(Cc3ccc(F)cc3)c3ccc(-c4cc(Cl)ccc4OCC(F)(F)F)c[n+]3[O-])c2)cc1 (stereo not shown): condition not met
CC(C)(C)OCCC(c1ccc(-c2cc(Cl)ccc2-n2cnnn2)c[n+]1[O-])n1cc(-c2ccc(C(=O)O)cc2)cn1 (stereo not shown): condition met
CC(=O)Nc1ccc(-c2cnn(C(CC3CC3)c3ccc(-c4c(-n5cnnn5)ccc(Cl)c4F)c[n+]3[O-])c2)cc1 (stereo not shown): condition met
O=C1OCc2cc(-c3cnn(C(CC4CC4)c4ccc(-c5cc(Cl)ccc5-n5cnnn5)c[n+]4[O-])c3)ccc21 (stereo not shown): condition not met

Answer whether pIC50 of COC(=O)Nc1ccc(-c2cnn(C(Cc3ccc(F)cc3)c3ccc(-c4cc(Cl)ccc4C#N)c[n+]3[O-])c2)cc1 (stereo not shown) is greater than or equal to 8. condition not met

Answer whether pIC50 of COC(=O)Nc1ccc(-c2cnn(C(Cc3ccccc3)c3ccc(-c4cc(Cl)c(F)cc4-n4cnnn4)c[n+]3[O-])c2)cc1 (stereo not shown) is greater than or equal to 8. condition not met

Answer whether pIC50 of COC(=O)Nc1ccc(-c2cnn(C(CC3CC3)c3ccc(-c4cc(Cl)ccc4-n4cc(Cl)nn4)c[n+]3[O-])c2)cc1 (stereo not shown) is greater than or equal to 8. condition not met

Answer whether pIC50 of O=C(O)c1ccc(-c2cnn(C(Cc3ccc(F)cc3)c3ccc(-c4cc(Cl)ccc4-n4cnnn4)c[n+]3[O-])c2)cc1 (stereo not shown) is greater than or equal to 8. condition met

Answer whether pIC50 of CN1CCc2cc(-c3cnn(C(CC4CC4)c4ccc(-c5cc(Cl)ccc5-n5cnnn5)c[n+]4[O-])c3)ccc2C1=O (stereo not shown) is greater than or equal to 8. condition not met

---

TARGET DESC: human plasma kallikrein (Homo sapiens, UniProt P03952)
Sequence (P03952 391-638 limits assumed): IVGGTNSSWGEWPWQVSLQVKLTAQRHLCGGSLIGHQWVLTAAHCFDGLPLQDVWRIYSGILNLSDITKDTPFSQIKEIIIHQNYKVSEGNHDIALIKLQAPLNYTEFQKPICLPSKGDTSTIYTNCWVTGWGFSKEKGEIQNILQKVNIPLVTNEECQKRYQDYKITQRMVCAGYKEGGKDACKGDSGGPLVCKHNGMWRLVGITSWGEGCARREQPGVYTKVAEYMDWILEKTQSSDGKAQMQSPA
Sequence (P03952 20-390 partner limits assumed): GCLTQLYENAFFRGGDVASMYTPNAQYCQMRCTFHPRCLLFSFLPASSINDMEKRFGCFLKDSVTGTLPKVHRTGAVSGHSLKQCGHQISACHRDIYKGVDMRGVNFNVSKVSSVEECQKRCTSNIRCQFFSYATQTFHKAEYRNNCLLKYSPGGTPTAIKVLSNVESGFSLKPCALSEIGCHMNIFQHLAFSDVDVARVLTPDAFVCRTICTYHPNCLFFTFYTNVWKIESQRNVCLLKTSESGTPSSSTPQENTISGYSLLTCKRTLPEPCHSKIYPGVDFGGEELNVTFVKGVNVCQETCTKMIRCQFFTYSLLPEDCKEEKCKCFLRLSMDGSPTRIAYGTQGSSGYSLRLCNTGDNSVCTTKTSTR
PROTOCOL SUMMARY: Kallikrein inhibition FLINT assay with quenched AMC peptide substrate Z-Gly-Pro-Arg-AMC (end point EP or kinetic KIN reads)
Format: biochemical
EXPERIMENTAL CONDITIONS: kinetic reads at 5 min intervals over 30 min; read-out: Kallikrein (KIN) IC50
REPORTED PROPERTY: IC50 (nM)
// units = nM; emit number, no label

As a guide, the following entries are already answered.
[O-][n+]1cc(-c2c(-n3cnnn3)ccc(Cl)c2F)ccc1C(Cn1cc(F)cn1)n1cc(-c2ccnc(C3CC3)c2)cn1 (stereo not drawn): 3.7
Nc1ncc(-c2cnn([C@H](CC3CC3)c3ccc(-c4c(-n5cnnn5)ccc(Cl)c4F)c[n+]3[O-])c2)s1: 8
[O-][n+]1cc(-c2c(-n3cnnn3)ccc(Cl)c2F)ccc1[C@@H](Cc1ccc(F)cc1)n1cc(-c2ccnn2C(F)F)cn1: 3.1

Report IC50 for O=C1CCCN1CC(c1ccc(-c2c(-n3cnnn3)ccc(Cl)c2F)c[n+]1[O-])n1cc(-c2cc[n+]([O-])c(C(F)F)c2)cn1 (single isomer, unassigned) 38.3

Report IC50 for [O-][n+]1cc(-c2c(-n3cnnn3)ccc(Cl)c2F)ccc1C(Cc1ccc(F)cc1)n1cc(-c2c(Cl)nnn2C(F)F)cn1 (single isomer, unassigned) [Example P589] 520

Report IC50 for N#Cc1cn(-c2ccc(Cl)c(F)c2-c2ccc([C@@H](CCOC(F)F)n3cc(-c4cnnn4C(F)F)cn3)[n+]([O-])c2)nn1 23.5
